Measured values drawn from the supplement of paper PMC5908809 for this set.

tested on: normal primary NK cells, pool 1 (3 donors) (IL-2 2.5 ng/mL); test: drug sensitivity score (DSS) (DSS units); higher = more sensitive; extreme values may be limits of the assay; conditions: 72 h
Reported drug sensitivity score is given for each of the following molecules.

MOLECULE: CS(=O)(=O)c1ccc(-c2cnc(N)c(C(=O)Nc3ccccc3)n2)cc1 [VE-821] (max concentration tested 10000 nM)
TARGET ENTITY: normal primary NK cells, pool 1 (3 donors) (IL-2 2.5 ng/mL)
drug sensitivity score: 0
//
MOLECULE: C=C1C[C@@H]2[C@H](CC[C@]3(C)C(=O)CC[C@@H]23)[C@@]2(C)C=CC(=O)C=C12 [Exemestane] (max concentration tested 10000 nM)
TARGET ENTITY: normal primary NK cells, pool 1 (3 donors) (IL-2 2.5 ng/mL)
drug sensitivity score: 1.99
//
MOLECULE: C=CC(=O)N1CCC[C@@H](n2nc(-c3ccc(Oc4ccccc4)cc3)c3c(N)ncnc32)C1 [Ibrutinib] (max concentration tested 1000 nM)
TARGET ENTITY: normal primary NK cells, pool 1 (3 donors) (IL-2 2.5 ng/mL)
drug sensitivity score: 2.44
//
MOLECULE: Cc1nc(NC(=O)N2CCC[C@H]2C(N)=O)sc1-c1ccnc(C(C)(C)C(F)(F)F)c1 [Alpelisib] (max concentration tested 2500 nM)
TARGET ENTITY: normal primary NK cells, pool 1 (3 donors) (IL-2 2.5 ng/mL)
drug sensitivity score: 0
//
MOLECULE: CC[C@H](NC(=O)[C@H](C)NC)C(=O)N1C[C@@H](O)C[C@H]1Cc1c(-c2[nH]c3cc(F)ccc3c2C[C@@H]2C[C@H](O)CN2C(=O)[C@H](CC)NC(=O)[C@H](C)NC)[nH]c2cc(F)ccc12 [Birinapant] (max concentration tested 1000 nM)
TARGET ENTITY: normal primary NK cells, pool 1 (3 donors) (IL-2 2.5 ng/mL)
drug sensitivity score: 3.88
